# testDescription: xn = mol fraction of the nth substance listed
# testConditions: 283.15 K; 100 kPa; Liquid; Cone and plate viscometry; x1 = 0.2
reportedMetric: viscosity (mPa·s)
Give bare numbers, in mPa·s.

CCCCCCCCCCCCCC[P+](CCCCCC)(CCCCCC)CCCCCC.N#Cc1ccc[n-]1 [trihexyl(tetradecyl)phosphonium 2-cyanopyrrolide] + CCCCCC[n+]1ccn(C)c1.O=S(=O)([N-]S(=O)(=O)C(F)(F)F)C(F)(F)F | 363

Answer for every listed entry: what is its viscosity? The entries follow.
1. CCCCCCn1cc[n+](C)c1.N#Cc1ccc[n-]1 [1-hexyl-3-methylimidazolium 2-cyanopyrrolide] + CCCCCCCCCCCCCC[P+](CCCCCC)(CCCCCC)CCCCCC.O=S(=O)([N-]S(=O)(=O)C(F)(F)F)C(F)(F)F
2. CCCCCCCCCCCCCC[P+](CCCCCC)(CCCCCC)CCCCCC.O=[N+]([O-])c1cn[n-]c1 [trihexyl(tetradecyl)phosphonium 4-nitropyrazolide] + CCCCCC[n+]1ccn(C)c1.O=S(=O)([N-]S(=O)(=O)C(F)(F)F)C(F)(F)F
3. CCCCCCCCCCCCCC[P+](CCCCCC)(CCCCCC)CCCCCC.O=S(=O)([N-]S(=O)(=O)C(F)(F)F)C(F)(F)F + CCCCCC[n+]1ccn(C)c1.O=S(=O)([N-]S(=O)(=O)C(F)(F)F)C(F)(F)F

867
367
280

* * *

Task for the reader: assign each of the following molecules its reported viscosity.
# testDescription: xn = mol fraction of the nth substance listed
# testConditions: 323.15 K; 100 kPa; Liquid; Cone and plate viscometry; x1 = 0.3
One number for each entry, in mPa·s.

CCCCCCn1cc[n+](C)c1.N#Cc1ccc[n-]1 [1-hexyl-3-methylimidazolium 2-cyanopyrrolide] + CCCCCCCCCCCCCC[P+](CCCCCC)(CCCCCC)CCCCCC.O=S(=O)([N-]S(=O)(=O)C(F)(F)F)C(F)(F)F | 87
CCCCCCCCCCCCCC[P+](CCCCCC)(CCCCCC)CCCCCC.O=[N+]([O-])c1cn[n-]c1 [trihexyl(tetradecyl)phosphonium 4-nitropyrazolide] + CCCCCC[n+]1ccn(C)c1.O=S(=O)([N-]S(=O)(=O)C(F)(F)F)C(F)(F)F | 64
CC(=O)[O-].CCCCCCCCCCCCCC[P+](CCCCCC)(CCCCCC)CCCCCC [trihexyl(tetradecyl)phosphonium acetate] + CCCCCC[n+]1ccn(C)c1.O=S(=O)([N-]S(=O)(=O)C(F)(F)F)C(F)(F)F | 70

Answer for every listed entry: what is its viscosity? The entries follow.
1. CCCCCCCCCCCCCC[P+](CCCCCC)(CCCCCC)CCCCCC.N#Cc1ccc[n-]1 [trihexyl(tetradecyl)phosphonium 2-cyanopyrrolide] + CCCCCCn1cc[n+](C)c1C.O=S(=O)([N-]S(=O)(=O)C(F)(F)F)C(F)(F)F
2. CCCCCCCCCCCCCC[P+](CCCCCC)(CCCCCC)CCCCCC.N#Cc1ccc[n-]1 [trihexyl(tetradecyl)phosphonium 2-cyanopyrrolide] + CCCCCC[n+]1ccn(C)c1.O=S(=O)([N-]S(=O)(=O)C(F)(F)F)C(F)(F)F

1. 67
2. 52

* * *

# testDescription: xn = mol fraction of the nth substance listed
# testConditions: 313.15 K; 100 kPa; Liquid; Cone and plate viscometry; x1 = 0.898
Task for the reader: assign each of the following molecules its reported viscosity.
Answers are plain numbers, in mPa·s.

Recorded results for 3 molecules are shown here.
CCCCCCCCCCCCCC[P+](CCCCCC)(CCCCCC)CCCCCC.N#Cc1ccc[n-]1 [trihexyl(tetradecyl)phosphonium 2-cyanopyrrolide] + CCCCCC[n+]1ccn(C)c1.O=S(=O)([N-]S(=O)(=O)C(F)(F)F)C(F)(F)F | 173
CCCCCCCC[P+](CC)(CC)CC.O=[N+]([O-])c1cn[n-]c1 [triethyloctylphosphonium 4-nitropyrazolide] + CCCCCC[n+]1ccn(C)c1.O=S(=O)([N-]S(=O)(=O)C(F)(F)F)C(F)(F)F | 110
CCCCCCn1cc[n+](C)c1C.O=[N+]([O-])c1cn[n-]c1 [1-hexyl-2,3-dimethylimidazolium 4-nitropyrazolide] + CCCCCCCCCCCCCC[P+](CCCCCC)(CCCCCC)CCCCCC.O=S(=O)([N-]S(=O)(=O)C(F)(F)F)C(F)(F)F | 263

From here, focus on the item given below.
The recorded viscosity for entry CCCCCCCCCCCCCC[P+](CCCCCC)(CCCCCC)CCCCCC.O=[N+]([O-])c1cn[n-]c1 [trihexyl(tetradecyl)phosphonium 4-nitropyrazolide] + CCCCCC[n+]1ccn(C)c1.O=S(=O)([N-]S(=O)(=O)C(F)(F)F)C(F)(F)F equals 244

Hello, the source for this data is the NIST ThermoML archive (doi:10.1021/acs.jced.7b00221), in case you need it.
